From: PubChem BioAssay AID687022

Exercise: state measured AbsAC1 (concentration giving Tm-shift threshold 1.0) for each of the compounds provided.
Molecular target: Fibroblast growth factor 22 (Homo sapiens) (UniProt Q9HCT0)
Sequence (Q9HCT0 whole entry, looked up): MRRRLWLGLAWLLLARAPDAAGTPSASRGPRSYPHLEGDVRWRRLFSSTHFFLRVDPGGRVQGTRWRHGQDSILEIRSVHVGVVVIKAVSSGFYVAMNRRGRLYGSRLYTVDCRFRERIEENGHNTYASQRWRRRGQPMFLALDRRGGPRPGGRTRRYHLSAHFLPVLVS
Assay: FGF22 ligand-induced thermal stabilization – biophysical, thermal shift, cherry-pick, FGF22 synaptogenesis inhibitor project, dose response (AID 687022)
Conditions: recombinant FGF22 thermal shift, SYPRO orange melting

Query string: Give the measured AbsAC1 (concentration giving Tm-shift threshold 1.0) for O=[N+]([O-])c1ccc(Nc2cccc(F)c2)nc1
Result string: 3.78 µM

Query string: Dear colleague, please send me the reported AbsAC1 (concentration giving Tm-shift threshold 1.0) for O=c1c2cc([N+](=O)[O-])cc([N+](=O)[O-])c2[nH]n1-c1ccccc1 when you can.
Result string: 4.84 µM

Query string: Give AbsAC1 (concentration giving Tm-shift threshold 1.0) for S=C(Nc1ccc(N2CCOCC2)cc1)Nc1ccc2snnc2c1
Result string: 9.95 µM

Query string: Quick one: give measured AbsAC1 (concentration giving Tm-shift threshold 1.0) for O=C(Nc1cc(Cl)cc(Cl)c1)N[C@@H]1CC[C@@H](CCNS(=O)(=O)c2cccc(F)c2)O[C@@H]1CO
Result string: 5.64 µM

Query string: Provide one value: measured AbsAC1 (concentration giving Tm-shift threshold 1.0) of COc1cccc(C#Cc2ccc([C@H]3[C@H]4CN(S(=O)(=O)c5ccccc5C)CC(=O)N4[C@H]3CO)cc2)c1
Result string: 16.6 µM

Query string: For the compound Cc1ccc(NC(=O)O/N=C/c2cccc([N+](=O)[O-])c2)cc1 , report AbsAC1 (concentration giving Tm-shift threshold 1.0).
Result string: 17.8 µM

Query string: Please give measured AbsAC1 (concentration giving Tm-shift threshold 1.0) of the following entry: COc1ccc(-c2cn(CC[C@@H]3CC[C@@H](NC(=O)Nc4ccc(F)cc4)[C@H](CO)O3)nn2)cc1
Result string: 12.8 µM

Query string: Tell me AbsAC1 (concentration giving Tm-shift threshold 1.0) reported for O=C(Nc1ccc(S(=O)(=O)NCc2ccccc2)cc1)c1ccccc1[N+](=O)[O-]
Result string: 12 µM

Query string: Give reported AbsAC1 (concentration giving Tm-shift threshold 1.0) value for CN1C(=O)c2cc(NC(=O)c3cccc(F)c3)ccc2OC[C@@H]2O[C@H](CC(=O)N3CCc4ccccc4C3)CC[C@@H]21
Result string: 17.2 µM

Query string: Give the reported value of AbsAC1 (concentration giving Tm-shift threshold 1.0) for this record: Cc1nn(-c2ccccc2)c(C)c1/C=N/NC(=O)c1cc(-c2cccs2)[nH]n1
Result string: 8.19 µM

Query string: # return recorded AbsAC1 (concentration giving Tm-shift threshold 1.0) for input COc1cccc(NC(=O)N(C)C[C@@H]2Oc3cc(-c4ccccc4F)ccc3S(=O)(=O)N([C@@H](C)CO)C[C@H]2C)c1
Result string: 16.3 µM

Query string: Provide measured AbsAC1 (concentration giving Tm-shift threshold 1.0) value, entry: C/C(=N\NC(=O)c1nnn(-c2nonc2N)c1CSc1ccc(C)cc1)c1cccnc1
Result string: 37.4 µM

Query string: State, in one line, measured AbsAC1 (concentration giving Tm-shift threshold 1.0) of C/C(=N\NC(=O)c1ccc(NS(=O)(=O)c2cccs2)cc1)c1cccs1
Result string: 3.06 µM

Query string: Give me measured AbsAC1 (concentration giving Tm-shift threshold 1.0), please, for this compound: CCOC(=O)c1c(N)sc(C(=O)Nc2ccccc2)c1C
Result string: 3.02 µM

Query string: Give recorded AbsAC1 (concentration giving Tm-shift threshold 1.0). COc1ccc(C(=O)N2CCCCC2)cc1S(=O)(=O)Nc1cccc(C(=O)O)c1
Result string: 9.12 µM

Query string: Retrieve AbsAC1 (concentration giving Tm-shift threshold 1.0) measured for O=C(CC(=O)c1ccccc1)Nc1cccc([N+](=O)[O-])c1 and print it.
Result string: 4.49 µM

Query string: Give the reported AbsAC1 (concentration giving Tm-shift threshold 1.0) for this compound. O=C(Nc1nc(=O)n(C(=O)C2CC2)s1)c1ccccc1
Result string: 20.7 µM

Query string: Provide AbsAC1 (concentration giving Tm-shift threshold 1.0) value for the following compound: COc1cccc(NC(=O)N(C)C[C@H]2Oc3cc(-c4ccccc4F)ccc3S(=O)(=O)N([C@@H](C)CO)C[C@H]2C)c1
Result string: 5.23 µM

Query string: Look up AbsAC1 (concentration giving Tm-shift threshold 1.0) of CC1CCN(Cc2c(C(=O)N/N=C/c3ccc(OC(C)C)cc3)nnn2-c2nonc2N)CC1 and report it.
Result string: 14 µM
